- Species: Homo sapiens
- assay_explanation: Liver toxicity in human assessed as induction of drug-induced liver injury by measuring severity class index
readout_label: DILI_severity_class
Lab note: write the figure by itself, no unit.

Prompt: Sample `CC(C)(CO)[C@@H](O)C(=O)NCCCO` — what was its DILI_severity_class?
Completion: 0

Prompt: Query CC(C)=CCN1CC[C@]2(C)c3cc(O)ccc3C[C@H]1[C@H]2C [(+)-PENTAZOCINE] next
Completion: 0

Prompt: Query `O=C(CCCN1CCC(O)(c2ccc(Cl)cc2)CC1)c1ccc(F)cc1` next
Completion: 5

Prompt: Query CCOC(=O)C1=C(C)NC(C)=C(C(=O)OC)C1c1cccc(Cl)c1Cl (stereo not given) next
Completion: 3

Prompt: Query O=C(O)CCCO [OXYBATE] next
Completion: 0

###

- Species: Homo sapiens
- assay_explanation: Liver toxicity in human assessed as induction of drug-induced liver injury by measuring verified drug-induced liver injury concern status
readout_label: DILI_Concern

Worked examples follow.
compound	DILI_Concern
O=c1[nH]cc(F)c(=O)[nH]1 [FLUOROURACIL]	Less-Dili-Concern
N=C(N)NC(=O)Cc1c(Cl)cccc1Cl [GUANFACINE]	Ambiguous-Dili-Concern
CC(=O)N[C@@H](CS)C(=O)O [ACETYLCYSTEINE]	No-Dili-Concern
CO/N=C(\C(=O)N[C@@H]1C(=O)N2C(C(=O)O)=C(/C=C\c3scnc3C)CS[C@H]12)c1csc(N)n1 [CEFDITOREN]	Ambiguous-Dili-Concern
COC(=O)[C@@H]1CC2=CC(=O)CC[C@]2(C)[C@@]23O[C@@H]2C[C@@]2(C)[C@@H](CC[C@@]24CCC(=O)O4)[C@H]13 [EPLERENONE]	Ambiguous-Dili-Concern

Prompt: Sample CCC(C)n1ncn(-c2ccc(N3CCN(c4ccc(OCC5COC(Cn6cncn6)(c6ccc(Cl)cc6Cl)O5)cc4)CC3)cc2)c1=O (stereo not drawn) [ITRACONAZOLE] — what was its DILI_Concern?
Completion: Most-Dili-Concern

Prompt: Query Cc1ccc(NC(=O)c2ccc(CN3CCN(C)CC3)cc2)cc1Nc1nccc(-c2cccnc2)n1 [IMATINIB] next
Completion: Most-Dili-Concern

Prompt: Query CN/C(=N/CCSCc1nc[nH]c1C)NC#N [CIMETIDINE] next
Completion: Less-Dili-Concern

Prompt: Query Cc1cn(-c2cc(NC(=O)c3ccc(C)c(Nc4nccc(-c5cccnc5)n4)c3)cc(C(F)(F)F)c2)cn1 [NILOTINIB] next
Completion: Ambiguous-Dili-Concern

Prompt: Query C[C@H]1[C@H](NC(=O)/C(=N\OC(C)(C)C(=O)O)c2csc(N)n2)C(=O)N1S(=O)(=O)O [AZTREONAM] next
Completion: Ambiguous-Dili-Concern

Prompt: Query CNC(=C[N+](=O)[O-])NCCSCc1ccc(CN(C)C)o1 [RANITIDINE] next
Completion: Less-Dili-Concern

Prompt: Query O=C(O)Cc1csc(-c2ccc(Cl)cc2)n1 [FENCLOZIC ACID] next
Completion: Most-Dili-Concern

Prompt: Query Cc1ccc(-c2cc(C(F)(F)F)nn2-c2ccc(S(N)(=O)=O)cc2)cc1 [CELECOXIB] next
Completion: Less-Dili-Concern

Prompt: Query CC(=O)Nc1nnc(S(N)(=O)=O)s1 [ACETAZOLAMIDE] next
Completion: Most-Dili-Concern
